Test summary: chemical genetic growth profiling, strain panel (AID 1159580);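 also: tested at 20 µM; growth read once vehicle control cultures reached saturation at 30 °C; 1 = growth at the plate median or of vehicle wells; lower values mean less growth of the strain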
Condition description: S. cerevisiae deletion strains, growth OD, locus YNL298W, strain CLA4, active compounds read low
Out of some 5,500 compounds screened, about 2,000 (36%) were called active. About 18% were inconclusive and are not listed. This is one part of the list.
Please assign -1 whenever normalized growth is at or above 1, and 1 whenever it is below.

[
  {
    "Compound": "CC(=O)O[C@]1(C(C)=O)CCC2C3C=C(C)C4=CC(=O)CCC4(C)C3CCC21C (some centres undefined)",
    "Assigned class": 1
  }
]

A record lists COc1cccc2c1CCC1CC(=O)CCC21C (centres undefined) . Is its normalized growth below 1?
1

Same again, this time with `Cc1cc(C(C)(C)CC(C)(C)C)ccc1OCCOCC[N+](C)(C)Cc1ccccc1`
1

Also `COc1cc(OC)c2c(c1)O[C@H](c1ccc(OC)c(OC)c1)[C@@H](O)C2` ?
-1

Let us now turn to `COc1ccc(-c2coc3c(O)c(OC)ccc3c2=O)cc1`
1

What about `CC(C)N(C(=O)CCl)c1ccccc1` ?
-1

* * *

Test summary: chemical genetic growth profiling, strain panel (AID 1159580);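 also: tested at 20 µM; growth read once vehicle control cultures reached saturation at 30 °C; 1 = growth at the plate median or of vehicle wells; lower values mean less growth of the strain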
Condition description: S. cerevisiae deletion strains, growth OD, locus YKR001C, strain vps1, active compounds read low
Among all 5,500 compounds or so, about 2,000 (36%) were called active. Inconclusive results (about 18%) are left out. The list shows a part of the results.
Recorded metric: normalized growth
When you answer, write just the number.

Worked examples follow.
[
  {
    "Chemical string": "COC(=O)[C@H]1[C@H]2C[C@H]3c4[nH]c5ccccc5c4CCN3C[C@H]2CC[C@@H]1O",
    "normalized growth": 1.02
  },
  {
    "Chemical string": "O=c1ccc2cc(O)c(O)cc2o1",
    "normalized growth": 0.953
  }
]

Please turn your attention to the following entry.
// lookup normalized growth for `Cc1ccc(O)cc1`
0.998

* * *

Test summary: chemical genetic growth profiling, strain panel (AID 1159580);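 also: tested at 20 µM; growth read once vehicle control cultures reached saturation at 30 °C; 1 = growth at the plate median or of vehicle wells; lower values mean less growth of the strain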
Condition description: S. cerevisiae deletion strains, growth OD, locus YLR370C, strain arc18, active compounds read low
Among all 5,500 compounds or so, about 2,000 (36%) were called active. Not shown: some 18% with an inconclusive outcome. The list shows a part of the results.
// values below are reported normalized growth
Write no unit; give the number alone.

See these solved cases before continuing.
[
  {
    "Compound": "CC(=O)O[C@@](C)(CCC=C(C)C)C1CC=C(C)CC1 (some centres not stated)",
    "normalized growth": 0.983
  },
  {
    "Compound": "O=C(O)c1ccccc1OP(=O)(O)O",
    "normalized growth": 1.01
  },
  {
    "Compound": "C[N+](C)(C)CC(=O)[O-]",
    "normalized growth": 0.985
  }
]

Sample `CC(C)[N+](C)(CCOC(=O)C1c2ccccc2Oc2ccccc21)C(C)C` — what was its normalized growth?
1.01

// next record CC(=O)O[C@H]1C(=O)[C@@]2(C)C([C@H](OC(=O)c3ccccc3)[C@]3(O)C[C@H](O)C(C)=C1C3(C)C)[C@]1(OC(C)=O)CO[C@@H]1C[C@@H]2O (some centres not stated)
0.984

Next record, please: COC1C(O)C(O)C(O)[C@@H](O)C1O (some centres not stated)
0.971

Follow-up item: CC1(C)C2CC[C@]3(C)C(C(=O)C=C4[C@H]5C[C@@](C)(C(=O)O)CC[C@]5(C)CC[C@]43C)[C@@]2(C)CC[C@@H]1O (some centres not stated)
1.01

Also `CN=C(NC#N)NCCSCc1nc(N=C(N)N)cs1` ?
0.983

Query `Cn1cc[nH]c1=S` next
0.978

Entry `NC(=O)N1c2ccccc2CC(=O)c2ccccc21` please
1

Proceed to `Cc1cc(=O)c2c(O)cc(O)c(C)c2o1`
0.971

Another compound to check: COC(=O)C1=COC(OC2OC(CO)C(O)C(O)C2O)C2C(C)CC(=O)C12O (configuration not stated)
1.01

Moving on to the next compound: CO[C@H]1C[C@H](O[C@H]2[C@H](C)[C@@H](OC3O[C@H](C)C[C@H](N(C)C)[C@H]3O)[C@@H](C)C[C@]3(CO3)C(=O)[C@H](C)[C@@H](O)[C@@H](C)[C@@H](C)OC(=O)[C@@H]2C)O[C@@H](C)[C@@H]1O (some centres not stated)
0.991
